MEASUREMENT_TARGET: Ysh1;Mpe1;Yjr141w (Saccharomyces cerevisiae;Saccharomyces …, UniProt Q06224;P35728;P47172 1-779;1-441;1-347, ||)
Sequence (Q06224 whole entry, chain 1 of 3): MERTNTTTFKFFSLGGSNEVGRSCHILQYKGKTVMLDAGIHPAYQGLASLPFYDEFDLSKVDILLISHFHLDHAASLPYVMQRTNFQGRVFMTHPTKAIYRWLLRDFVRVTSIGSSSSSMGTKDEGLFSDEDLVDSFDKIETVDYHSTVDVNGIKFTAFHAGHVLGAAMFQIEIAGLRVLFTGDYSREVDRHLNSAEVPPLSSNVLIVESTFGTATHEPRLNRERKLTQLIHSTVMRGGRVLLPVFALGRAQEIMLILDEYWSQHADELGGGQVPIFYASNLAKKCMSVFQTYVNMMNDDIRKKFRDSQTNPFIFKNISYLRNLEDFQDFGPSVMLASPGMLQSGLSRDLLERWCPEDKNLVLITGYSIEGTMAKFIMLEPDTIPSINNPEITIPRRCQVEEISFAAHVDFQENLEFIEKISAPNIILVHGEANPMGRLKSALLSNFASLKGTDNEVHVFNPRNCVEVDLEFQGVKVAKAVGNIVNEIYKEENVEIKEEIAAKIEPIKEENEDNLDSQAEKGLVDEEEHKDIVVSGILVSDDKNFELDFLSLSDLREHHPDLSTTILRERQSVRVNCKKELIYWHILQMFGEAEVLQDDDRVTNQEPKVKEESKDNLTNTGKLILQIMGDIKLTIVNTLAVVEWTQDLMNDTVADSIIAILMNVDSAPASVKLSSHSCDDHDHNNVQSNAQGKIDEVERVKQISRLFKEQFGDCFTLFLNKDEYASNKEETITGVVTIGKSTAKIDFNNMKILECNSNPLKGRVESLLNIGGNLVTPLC
Sequence (P35728 whole entry, chain 2 of 3): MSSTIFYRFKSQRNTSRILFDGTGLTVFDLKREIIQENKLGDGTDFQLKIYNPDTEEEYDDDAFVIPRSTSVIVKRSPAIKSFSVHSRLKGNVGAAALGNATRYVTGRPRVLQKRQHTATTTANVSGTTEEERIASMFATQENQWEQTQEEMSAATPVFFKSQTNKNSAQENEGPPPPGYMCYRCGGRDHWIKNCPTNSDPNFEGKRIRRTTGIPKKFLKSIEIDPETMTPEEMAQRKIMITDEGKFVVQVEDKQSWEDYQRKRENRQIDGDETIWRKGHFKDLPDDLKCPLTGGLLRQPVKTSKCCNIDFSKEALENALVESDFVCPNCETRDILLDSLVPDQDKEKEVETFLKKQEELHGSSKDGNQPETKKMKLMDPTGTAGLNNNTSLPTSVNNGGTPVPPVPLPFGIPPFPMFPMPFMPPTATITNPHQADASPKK
Sequence (P47172 whole entry, chain 3 of 3): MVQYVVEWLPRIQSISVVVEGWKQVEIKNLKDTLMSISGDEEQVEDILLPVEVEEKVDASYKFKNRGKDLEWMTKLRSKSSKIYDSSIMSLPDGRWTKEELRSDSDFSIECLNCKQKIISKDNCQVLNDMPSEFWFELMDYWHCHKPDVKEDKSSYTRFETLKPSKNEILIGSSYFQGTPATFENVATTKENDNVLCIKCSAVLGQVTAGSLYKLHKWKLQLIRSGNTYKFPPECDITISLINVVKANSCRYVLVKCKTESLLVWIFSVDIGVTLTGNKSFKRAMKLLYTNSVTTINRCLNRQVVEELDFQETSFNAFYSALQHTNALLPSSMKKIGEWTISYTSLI
EXPERIMENT: EMSA; EMSA: 50 nM RNA, 0.25-4.0 uM protein, protein diluted in 10 mM HEPES pH 7.9, 150 mM NaCl, 0.5 mM Mg(OAc)2, plus 1x loading dye (orange G, glycerol, EDTA); 30 min on ice; native 6% acrylamide/TBE PAGE
ASSAY_CONTEXT: protein: recombinant;recombinant;recombinant; tags: ;3C-SII (C-terminal) in Ysh1-Mpe1 complexes; untagged in CPFcore;SII-3C (N-terminal) in Ysh1-Yjr141w; untagged in Ysh1-Mpe1-Yjr141w; copies: 1;1;1; label: 5'-FAM
READOUT_NAME: binding result

BINDER: GGGGGGGGGGGGGGG (ssRNA) [G15]
MEASURED: binds
//
BINDER: UUUUUUUUUUUUUUU (ssRNA) [U15]
MEASURED: no binding
//
BINDER: AAAAAAAAAAAAAAA (ssRNA) [A15]
MEASURED: no binding
//
BINDER: CCCCCCCCCCCCCCC (ssRNA) [C15]
MEASURED: no binding

Value source: paper PMC6436931
